Origin of measurements: ChEMBL document CHEMBL4251601

assay: Oral bioavailability in Sprague-Dawley rat at 5 mg/kg administered as single dose by LC-MS/MS analysis; format: ADME, organism-based; settings: Sprague-Dawley, in vivo
I would appreciate it if you labelled entries Met when bioavailability is 20% or higher, otherwise Not met.

compound	assigned_label
CCC1(C)C(C)=Nc2c(F)cc(-c3nc(Nc4ccc(C5CCN(C)CC5)cn4)ncc3F)cc21 (stereo not drawn)	Met
CCN1CCC(c2ccc(Nc3ncc(F)c(-c4cc(F)c5c(c4)C4(CCCC4)C(C)=N5)n3)nc2)CC1	Met
CCN1CCN(Cc2ccc(Nc3ncc(F)c(-c4cc(F)c5c(c4)C4(CCCC4)C(C)=N5)n3)nc2)CC1	Met
CC1=Nc2ccc(-c3nc(Nc4ccc(N5CCN(C)CC5)cn4)ncc3F)cc2C12CCCC2	Met
CCN1CCN(c2ccc(Nc3ncc(F)c(-c4cc(F)c5c(c4)C4(CCCC4)C(C)=N5)n3)nc2)CC1	Not met

Problem: Determine whether this compound has bioavailability no lower than 20%: CC1=Nc2c(F)cc(-c3nc(Nc4ccc(N5CCN(C)CC5)cn4)ncc3F)cc2C12CCCC2
Solution: Met

Problem: Determine whether this compound has bioavailability no lower than 20%: CCC1(CC)C(C)=Nc2c(F)cc(-c3nc(Nc4ccc(N5CCNCC5)cn4)ncc3F)cc21
Solution: Not met

Problem: Determine whether this compound has bioavailability no lower than 20%: CC1=Nc2c(F)cc(-c3nc(Nc4ccc(N5CCNCC5)cn4)ncc3F)cc2C12CCCC2
Solution: Met

Problem: Determine whether this compound has bioavailability no lower than 20%: CCC1(C)C(C)=Nc2c(F)cc(-c3nc(Nc4ccc(N5CCNCC5)cn4)ncc3F)cc21 (stereo not drawn)
Solution: Met

Problem: Determine whether this compound has bioavailability no lower than 20%: CC1=Nc2c(F)cc(-c3nc(Nc4ccc(C5CCNCC5)cn4)ncc3F)cc2C12CCCC2
Solution: Met

Problem: Determine whether this compound has bioavailability no lower than 20%: CC1=Nc2ccc(-c3nc(Nc4ccc(N5CCNCC5)cn4)ncc3F)cc2C12CCCC2
Solution: Met

Problem: Determine whether this compound has bioavailability no lower than 20%: CCN1CCN(Cc2ccc(Nc3ncc(F)c(-c4cc(F)c5c(c4)C(C)(CC)C(C)=N5)n3)nc2)CC1 (stereo not drawn)
Solution: Met

Problem: Determine whether this compound has bioavailability no lower than 20%: CC1=Nc2c(F)cc(-c3nc(Nc4ccc(C5CCN(C)CC5)cn4)ncc3F)cc2C12CCCC2
Solution: Met

====

test: AUC (0 to infinity) in CD-1 mouse plasma at 10 mg/kg, po administered as single dose by LC-MS/MS analysis; format: ADME, organism-based; design: dose 10 mg/kg, time infinity, route oral
assay_readout: AUC(0-inf) (ng·h/mL)
Field format: number, assumed ng·h/mL, no unit text.

Problem: Input CC1=Nc2c(F)cc(-c3nc(Nc4ccc(C5CCN(C)CC5)cn4)ncc3F)cc2C12CCCC2 , output reported AUC(0-inf).
Solution: 9110

====

test: Half life in Sprague-Dawley rat at 5 mg/kg, po administered as single dose by LC-MS/MS analysis; type: ADME, organism-based; conditions: in vivo
I would appreciate it if you labelled entries Fulfilled when half-life is 5 h or higher, otherwise Not fulfilled.

Here's what some known entries look like.
compound	assigned_label
CCN1CCN(Cc2ccc(Nc3ncc(F)c(-c4cc(F)c5c(c4)C4(CCCC4)C(C)=N5)n3)nc2)CC1	Not fulfilled
CCN1CCN(Cc2ccc(Nc3ncc(F)c(-c4cc(F)c5c(c4)C(C)(CC)C(C)=N5)n3)nc2)CC1 (stereo not given)	Not fulfilled
CCN1CCN(c2ccc(Nc3ncc(F)c(-c4cc(F)c5c(c4)C4(CCCC4)C(C)=N5)n3)nc2)CC1	Fulfilled

Problem: Determine whether this compound has half-life no lower than 5 h: CC1=Nc2c(F)cc(-c3nc(Nc4ccc(C5CCN(C)CC5)cn4)ncc3F)cc2C12CCCC2 [CROZBACICLIB]
Solution: Fulfilled
